Test system: P388 leukemia ip, CD2F1 mice, survival T/C
Assay: NCI In Vivo Anticancer Drug Screen. Data for tumor model P388 Leukemia (intraperitoneal) in CD2F1 (CDF1) mice
Details: endpoint: median survival time; dose: 50.0 mg/kg/injection; schedule: Q01DX009 (ip); vehicle: other; higher = longer survival
Toxic doses and inconclusive results are not listed.
assay_endpoint: T/C

CCCCCCCCCCCCCCCCS(=O)CC(O)COC(=O)c1ccc(C(=O)OCC(O)CS(=O)CCCCCCCCCCCCCCCC)cc1 (stereo not given) ... 114 % of control

stdin: Kindly indicate its recorded T/C. Item: C[C@]12CC[C@@H](OC(=O)N(CCCl)N=O)C[C@@H]1CC[C@@H]1[C@@H]2CC[C@]2(C)C(=O)CC[C@@H]12
stdout: 123 % of control

stdin: Please report the measured T/C for c1ccc2[nH]c(N=Nc3cccc4ccccc34)cc2c1
stdout: 100 % of control

stdin: // Input: CCOC(=O)C(CC(=O)O)Cc1cccc(OC)c1OC (stereo not given) . Output its T/C only.
stdout: 100 % of control

stdin: Give the measured T/C for O=C1c2ccccc2C(=O)c2c(NCCN3CCCCC3)ccc(NCCN3CCCCC3)c21
stdout: 104 % of control

stdin: Tell me T/C reported for COc1cc2c(=O)n3c4c(cccc4c2cc1OC)CCC3
stdout: 90 % of control

stdin: For the molecule CCOC(=O)C(CSC(c1ccccc1)(c1ccccc1)c1ccccc1)NC(=O)CCNC(=O)c1ccccc1 (stereo not given) , give its reported T/C.
stdout: 104 % of control

----------
Test system: P388 leukemia ip, CD2F1 mice, survival T/C
Assay: NCI In Vivo Anticancer Drug Screen. Data for tumor model P388 Leukemia (intraperitoneal) in CD2F1 (CDF1) mice
Settings: endpoint: median survival time; dose: 50.0 mg/kg/injection; schedule: Q01DX001 (ip); vehicle: saline with Tween-80; higher = longer survival
Inconclusive results and toxic doses are left out.
assay_endpoint: T/C

Reference set (4 entries):
O=P1(CNc2ccccc2)CN(c2ccccc2)CN(c2ccccc2)C1 ... 100 % of control
COC(=O)Cn1/c(=N\N=C\c2ccc([N+](=O)[O-])cc2)sc2ccccc21 ... 92 % of control
CCN(CC)CCCNc1cc(C)c2cc(OC)ccc2n1 ... 97 % of control
CC(C)(C)NC/C(C#N)=C\c1ccccc1 ... 99 % of control

Please find the next compound below.
stdin: In one line, give reported T/C of the entry CCN1CCc2cccc3c2C1c1ccccc1CC3 (stereo not given) .
stdout: 100 % of control

----------
Test system: P388 leukemia ip, CD2F1 mice, survival T/C
Test: NCI In Vivo Anticancer Drug Screen. Data for tumor model P388 Leukemia (intraperitoneal) in CD2F1 (CDF1) mice
Details: endpoint: median survival time; dose: 400.0 mg/kg/injection; schedule: Q01DX009 (ip); vehicle: saline with Tween-80; higher = longer survival
Inconclusive results and toxic doses are left out.
assay_endpoint: T/C

Consider the worked cases shown below.
O=C(Nc1nccs1)Nc1ccccc1C(F)(F)F ... 88 % of control
O=C(CCl)C(c1ccc([N+](=O)[O-])cc1)c1ccc([N+](=O)[O-])cc1 ... 118 % of control

stdin: Name the recorded T/C of the compound listed here: CCOC(=O)c1nc(Cl)cn(O)c1=N
stdout: 93 % of control

stdin: Return reported T/C. Input compound: CC(/C=C/c1ccccc1)=N\Nc1ccccc1
stdout: 106 % of control

stdin: // Input: COc1ccc(CCNC(=O)Cc2ccc(OC)c(OC)c2)cc1OC . Output its T/C only.
stdout: 123 % of control

stdin: Specify measured T/C for COC(=O)c1ccc(O)c(O)c1 .
stdout: 100 % of control

stdin: Supply recorded T/C for c1ccc2c(c1)Cc1nc3ccccc3nc1-2 here.
stdout: 100 % of control

stdin: // fetch T/C given entry Cc1ccc(NC(=O)c2ccc([N+](=O)[O-])cc2)c(C)c1
stdout: 110 % of control

stdin: Provide only the value of recorded T/C for Cc1ccc(S(=O)(=O)NC(=O)c2ccccc2)cc1
stdout: 91 % of control

stdin: Read off the recorded T/C for CCCN(CCC)c1ccc(N=Nc2ccccc2C(=O)O)cc1
stdout: 110 % of control

stdin: Answer with the recorded T/C of O=C(Nc1ccc(C(=O)Nc2cc(S(=O)(=O)O)cc3cc(S(=O)(=O)O)cc(O)c23)cc1)c1ccccc1 only.
stdout: 103 % of control

----------
Tested on: P388 leukemia ip, CD2F1 mice, survival T/C
Assay: NCI In Vivo Anticancer Drug Screen. Data for tumor model P388 Leukemia (intraperitoneal) in CD2F1 (CDF1) mice
Details: endpoint: median survival time; dose: 120.0 mg/kg/injection; schedule: Q01DX005 (ip); vehicle: saline; higher = longer survival
Inconclusive results and toxic doses are left out.
assay_endpoint: T/C

stdin: Using known records, supply T/C for COC(=O)n1nnc2ncccc21
stdout: 100 % of control

stdin: Using known records, supply T/C for CCOC(=O)C1N=C(OCC)C(C)N=C1OCC (stereo not given)
stdout: 102 % of control

stdin: Fill in reported T/C for this entry: CN(C)c1ccc2nc3ccc(=N)cc-3sc2c1
stdout: 118 % of control

stdin: Identify the reported T/C for the following entry. O=P(O)(O)CCCNO
stdout: 91 % of control

stdin: Quick one: give measured T/C for Nc1n[nH][nH]c1=O
stdout: 116 % of control

----------
System: P388 leukemia ip, CD2F1 mice, survival T/C
Test: NCI In Vivo Anticancer Drug Screen. Data for tumor model P388 Leukemia (intraperitoneal) in CD2F1 (CDF1) mice
Conditions: endpoint: median survival time; dose: 6.25 mg/kg/injection; schedule: Q01DX009 (ip); vehicle: saline; higher = longer survival
Toxic doses and inconclusive results are not listed.
# reported T/C; entries follow

Example entries begin here.
CCCCN(CCCC)P(=O)(N1CC1)N1CC1 ... 118 % of control
COc1cccc2c1C(=O)c1c(O)c3c(c(O)c1C2=O)C[C@@](O)(C(=O)CO)C[C@@H]3OC1CC(NC(=S)Nc2ccc3ccccc3c2)C(O)C(C)O1 (stereo partly specified) ... 99 % of control

stdin: Determine from records and report T/C for COC1=C(OC)C(=O)C(SCCCCCCC2CCCCC2)=C(Cl)C1=O
stdout: 106 % of control

stdin: Kindly indicate its recorded T/C. Item: CCCCCCOc1ccc(OCCCC[N+]2(CC)CCCCC2)cc1
stdout: 104 % of control

stdin: Identify the reported T/C for the following entry. Cc1cc(=O)oc2cc(OC(=O)Nc3ccc(Cl)c(Cl)c3)ccc12
stdout: 100 % of control

stdin: Consider the compound CCCCCCCCCCC[N+]1(CC)CCCCC1 . State its measured T/C.
stdout: 124 % of control

----------
Test system: P388 leukemia ip, CD2F1 mice, survival T/C
Test: NCI In Vivo Anticancer Drug Screen. Data for tumor model P388 Leukemia (intraperitoneal) in CD2F1 (CDF1) mice
Conditions: endpoint: median survival time; dose: 120.0 mg/kg/injection; schedule: Q01DX005 (ip); vehicle: Klucel (hydroxypropylcellulose) (HPC); higher = longer survival
Toxic doses and inconclusive results are not listed.
assay_endpoint: T/C

stdin: Return reported T/C. Input compound: CN(C)c1ccc(C2c3cc4c(cc3OC3(N5CCCC5)CCCCC23)OCO4)cc1 (stereo not given)
stdout: 97 % of control

stdin: // fetch T/C given entry C1COCCOCCOCCOCCO1.[Cl][Sn]([Cl])([Cl])[Cl]
stdout: 99 % of control

stdin: Give the reported T/C for this compound. CCN(Cc1c(C)[nH]c2cc(N(C)C)ccc2c1=O)Cc1c(C)[nH]c2cc(N(C)C)ccc2c1=O
stdout: 92 % of control

stdin: Give the measured T/C for COCN(C)N=Nc1ccc(C(=O)OC)cc1
stdout: 101 % of control

stdin: Check the records and state T/C for CNC(=O)NC(c1cc(OC)c(O)c(OC)c1)c1cc2c(cc1O)OCO2 (stereo not given)
stdout: 94 % of control

stdin: Please supply the value of reported T/C for the item CC1(N2CCCCC2)C(=O)NC(=O)N(C2CCCCC2)C1=O (stereo not given)
stdout: 95 % of control

stdin: Please give measured T/C of the following entry: CCOC(=O)c1cnc2cc3c(cc2c1Nc1cccc(Cl)c1)OCO3
stdout: 95 % of control

stdin: Read off the recorded T/C for COc1cc(OC)cc(C2OC3=C(Nc4ccc([N+](=O)[O-])cc4N3)C2=O)c1 (stereo not given)
stdout: 90 % of control

stdin: Give the measured T/C for CCC(=O)N=c1sc(SCc2ccccc2)nn1C(=O)SC (tested in a mixture with another compound)
stdout: 98 % of control

stdin: Return T/C for the following compound: CS(=O)(=O)c1ccc(C[N+]23CN4CN(CN(C4)C2)C3)cc1
stdout: 99 % of control

----------
Test system: P388 leukemia ip, CD2F1 mice, survival T/C
Assay: NCI In Vivo Anticancer Drug Screen. Data for tumor model P388 Leukemia (intraperitoneal) in CD2F1 (CDF1) mice
Settings: endpoint: median survival time; dose: 25.0 mg/kg/injection; schedule: Q01DX009 (ip); vehicle: other; higher = longer survival
Toxic doses and inconclusive results are not listed. Peptide text beside a SMILES is read from it. * marks the point of attachment. Boc = CC(C)(C)OC(=O)*; NHNH2 = NN*
assay_endpoint: T/C

These solved cases illustrate the format of a correct answer.
Cc1cc(=O)oc2cc(OC(=O)C(CCCCN)NC(=O)OCc3ccccc3)ccc12 (configuration not stated) ... 121 % of control
C[C@]12CC[C@@H](OC(=O)N(CCCl)N=O)C[C@@H]1CC[C@@H]1[C@@H]2CC[C@]2(C)C(=O)CC[C@@H]12 ... 121 % of control

stdin: Give the reported value of T/C for this record: CC(C)(C)OC(=O)NC(Cc1c[nH]c2ccccc12)C(=O)NC(Cc1c[nH]c2ccccc12)C(=O)NN (stereo not drawn) (Boc-Trp-Trp-NHNH2; configuration not given here)
stdout: 94 % of control

stdin: Write down T/C measured for item [N-]=[N+]=NCC(=O)N1c2ccccc2Sc2ccccc21
stdout: 108 % of control

stdin: Output T/C of O=C1c2ccccc2C(=O)c2c(NCCN3CCCCC3)ccc(NCCN3CCCCC3)c21
stdout: 104 % of control

stdin: Quickly give me recorded T/C for CC1(C)CC(C)(OC(=O)c2ccc(Cl)cc2)[N+]([O-])=N1 (configuration not stated)
stdout: 98 % of control

stdin: Input COc1cccc(C=O)c1OS(=O)(=O)c1ccc(C)cc1 , output reported T/C.
stdout: 101 % of control
